system: OVCAR-5 ovarian; assay: NCI tumour cell line growth inhibition, 48 h
Reported GI50 values follow for various molecules

Example entries and their recorded answers appear below.
[
  {
    "Molecule": "C[C@]12CC[C@H]3[C@@H](CC=C4C[C@@H](O)CC[C@@]43C)[C@@H]1C/C(=C\\c1cccc(OCCCn3ccnc3)c1)[C@@H]2O",
    "Parameter": "GI50",
    "Endpoint value": "17.2 µM"
  },
  {
    "Molecule": "N#C/C(=C\\c1ccc(Cl)cc1)n1nnc2cc(F)c(F)cc21",
    "Parameter": "GI50",
    "Endpoint value": "1.9 µM"
  },
  {
    "Molecule": "CCOC(=O)c1ccc(C(O)CC(=O)OC(C)(C)C)[nH]1 (centres undefined)",
    "Parameter": "GI50",
    "Endpoint value": "32.3 µM"
  }
]

Turning to the following molecule.
Enquiry: Query: GI50; subject: O=C(CSc1nc2sc3c(c2c(=O)n1-c1ccccc1)CCCCC3)N/N=C/c1ccc(F)cc1
Return: 3.76 µM

* * *

system: SW-620 colon; experiment: NCI tumour cell line growth inhibition, 48 h; in the data active = GI50 below about 0.43 µM; inactive = the rest
Answer with one of the outcomes given here: active, inactive

[
  {
    "Molecule": "O=C(Nc1cccc(-c2nc3ccccc3[nH]2)c1)c1cccc(NC(=O)c2ccco2)c1",
    "Category": "inactive"
  },
  {
    "Molecule": "CN(C)c1ccc2[nH]c(O)c(C=Nc3ccc(S(N)(=O)=O)cc3)c2c1",
    "Category": "inactive"
  },
  {
    "Molecule": "O=C(/C=C/c1ccc2c(c1)OCO2)c1ccccc1",
    "Category": "inactive"
  }
]

Enquiry: # fetch the recorded call for CCC[CH2][Sn]([CH2]CCC)([O]C(=O)c1cccc(F)c1F)[O][Sn]([CH2]CCC)([CH2]CCC)[O]C(=O)c1cccc(F)c1F here
Return: active

Enquiry: # fetch the recorded call for C[C@]12CC[C@H]3[C@@H](CC=C4C[C@@H](O)CC[C@@]43C)[C@@H]1C/C(=C\c1cccc(OCCCn3ccnc3)c1)[C@@H]2O here
Return: inactive

Enquiry: # fetch the recorded call for Fc1ccc(Nc2ccc3cc(OCCCN4CCOCC4)ccc3n2)cc1F here
Return: inactive

Enquiry: # fetch the recorded call for CCOC(=O)c1ccc2[nH]c(Cc3[nH]c4ccc(C(=O)OCC)cc4c3C)c(C)c2c1 here
Return: inactive

Enquiry: # fetch the recorded call for COc1cc2c3c(n(CCCn4ccnc4)c(=O)c2cc1OC)-c1ccccc1C3=O here
Return: active

Enquiry: # fetch the recorded call for COc1ccc2c(c1)C(=O)c1c-2c(N2CCN(C(=O)CN(C)C)CC2)nc2ccccc12 here
Return: inactive

Enquiry: # fetch the recorded call for CC1(C)OC(=O)C=C(O)O1.CC1(C)OC(=O)C=C(O)O1.CCO.Oc1ccc2c(c1)CCC2.[Ti] here
Return: inactive

Enquiry: # fetch the recorded call for C[C@@H](Oc1cc(-c2cnn(C3CC4(CCNCC4)C3)c2)cnc1N)c1c(F)ccc(Cl)c1Cl here
Return: inactive

Enquiry: # fetch the recorded call for CCOC(=O)c1ccc(C(O)CC(=O)OC(C)(C)C)[nH]1 (stereo not drawn) here
Return: inactive

Enquiry: # fetch the recorded call for CN1CCN(CCCOc2ccc3ncnc(Nc4ccc(Oc5cccc(C(F)(F)F)c5)c(Cl)c4)c3c2)CC1 here
Return: inactive
